The measurements presented in this section are drawn from PubChem BioAssay (NCI).

System: MDA-MB-435 melanoma
procedure-summary: NCI-60 one-dose screen, 48 h
test-context: 10 µM unless noted
Experimental: Growth inhibition of the MDA-MB-435 human Melanoma tumor cell line is measured as a screen for anti-cancer activity. Cells are grown in 96 well plates and exposed to the test compound for 48 hours. Compounds are tested at a single concentration, which is 10^-5 M for most compounds. The reported endpoint is percent growth (GI% or GIPRCNT), where numbers from 0 - 100% represent growth inhibition, and numbers from -100% - 0 represent cell death. […]
About 83,000 compounds went through this panel and 20% of them were active in at least one assay; those are over-represented in the sample as a whole. Active and inactive are the calls of the source. The calls were made as follows: active = growth percent below 10; inactive = the rest.
API: response.call in T for active, F for inactive

Challenge: What call does the record list for `CCOC(=O)c1cnc2ccc(Br)cc2c1Nc1cccc(S(=O)(=O)NC)c1` ?
Response given: F

Challenge: What call does the record list for `O=[N+]([O-])c1cccc(-c2nc3sccn3c2-c2ccnc(NCCCNS(=O)(=O)c3cccc(F)c3)n2)c1` ?
Response given: T

Challenge: What call does the record list for OC(c1cc(-c2ccccc2)nc2ccc(Cl)cc12)C1CCCCN1 (stereo not given) ?
Response given: F

Challenge: What call does the record list for `O=C(/C=C\c1ccc2ccccc2n1)c1cc(Cl)ccc1O` ?
Response given: F

Challenge: What call does the record list for `N#Cc1c(N)nc(N)nc1Nc1ccc(Br)cc1` ?
Response given: F

Challenge: What call does the record list for `COc1ccc(-c2cnoc2-c2cc(OC)c3c(c2)OCCO3)cc1` ?
Response given: T

Challenge: What call does the record list for COc1cc(C2C(C(=O)c3cccs3)=C(O)C(=O)N2CCN2CCOCC2)cc(OC)c1OC (stereo not given) ?
Response given: F

Challenge: What call does the record list for `CCN(CC)c1ccc(CNc2cc(C)nc3ccc(OC)cc23)cc1` ?
Response given: T

Challenge: What call does the record list for `COc1cccc(NC(=O)c2sc3nc4c(cc3c2N)CN(Cc2ccccc2)CC4)c1` ?
Response given: T

Challenge: What call does the record list for `CC(=O)C1=C(O)C=C2Oc3c(C(=O)/C=C/c4c(Cl)cccc4Cl)c(O)c(C)c(O)c3[C@]2(C)C1=O` ?
Response given: T

Challenge: What call does the record list for `CN1CCN(c2ccc3nc(-c4ccc5nc(-c6ccc(OCCC(C)(C)C)cc6)[nH]c5c4)[nH]c3c2)CC1` ?
Response given: T

Challenge: What call does the record list for `O=C1Nc2c(ccc(Cl)c2Cl)/C1=C/c1cc(Br)c(O)c(Br)c1` ?
Response given: T

Challenge: What call does the record list for `COc1cccc(-c2nc3sccn3c2-c2ccnc(NCCCNS(=O)(=O)c3ccccc3)c2)c1` ?
Response given: F

Challenge: What call does the record list for CCN(CC)CC(O)CNc1c2ccc([N+](=O)[O-])cc2nc2cc(OC)c(OC)cc12 (stereo not given) ?
Response given: T

Challenge: What call does the record list for `Cn1cc(-c2ccc(-c3cn(C)c4ncccc34)[nH]2)c2cccnc21` ?
Response given: F

* * *

Test system: T-47D breast
procedure-summary: NCI-60 one-dose screen, 48 h (100 = growth as untreated, 0 = no growth, -100 = all killed)
test-context: 10 µM unless noted
About 83,000 compounds went through this panel and 20% of them were active in at least one assay; those are over-represented in the sample as a whole. The source made the active and inactive calls. The calls were made as follows: active = growth percent below 10; inactive = the rest.
measure-name: growth

Challenge: Entry under review: `O=C(CN1CCOCC1)Nc1ccc(Cn2nnc3c2C(=O)c2nnn(Cc4ccc(NC(=O)CN5CCOCC5)cc4)c2C3=O)cc1` . Reported growth?
Response given: -26.5% (active)

Challenge: Entry under review: `COc1ccc(CCN2CCCn3c2nc2ccccc2c3=O)cc1` . Reported growth?
Response given: 80.8% (inactive)

Challenge: Entry under review: `COc1nc2c(cc1S(=O)(=O)c1ccccc1)CCc1c-2cnn1-c1ccc(Cl)cc1` . Reported growth?
Response given: 83.2% (inactive)

Challenge: Entry under review: `CCN(CC)CCCCNc1ccc(NCCCCN(CC)CC)c2c1C(=O)c1ccccc1C2=O` . Reported growth?
Response given: 122% (inactive)

Challenge: Entry under review: `O=C(Cc1ccccc1)c1ccc(Cl)cc1` . Reported growth?
Response given: 91.1% (inactive)

Challenge: Entry under review: `CCOC(=O)CC(C)=N` . Reported growth?
Response given: 109% (inactive)

Challenge: Entry under review: `COc1ccc(-c2nn(-c3ccccc3)cc2/C=C/C(=O)OCc2cn(-c3ccc(F)c(Cl)c3)nn2)cc1` . Reported growth?
Response given: 48.3% (inactive)

Challenge: Entry under review: `O=C(/C=C/c1ccc(Cl)cc1)c1ccc(O)c(CN2CCN(c3cc4c(cc3F)c(=O)c(C(=O)O)cn4C3CC3)CC2)c1` . Reported growth?
Response given: 53.4% (inactive)

Challenge: Entry under review: `COc1ccc(C/C(C)=C(\c2ccc(OCCN3CCCCCC3)cc2)c2ccc(OC(=O)C3CCCCC3)cc2)cc1` . Reported growth?
Response given: 38.1% (inactive)

Challenge: Entry under review: `O=C(/C=C/c1cccc(Br)c1)c1ccccc1` . Reported growth?
Response given: 52% (inactive)

Challenge: Entry under review: `Brc1cccc(-c2nc(-c3ccc4c(c3)OCCO4)co2)c1` . Reported growth?
Response given: 46.6% [25 µM] (inactive)

Challenge: Entry under review: `COc1ccc(S(=O)(=O)NCCCNc2nccc(-c3c(-c4cccc(N)c4)nc4sccn34)n2)cc1` . Reported growth?
Response given: 63% (inactive)

Challenge: Entry under review: `CC/C(Cc1ccccc1)=C(\c1ccc(OCCN2CCCC2)cc1)c1ccc(OC(C)=O)cc1` . Reported growth?
Response given: 51.4% (inactive)

Challenge: Entry under review: `COc1ccc(/C=N\NC(=O)CN2CCN(c3cc4c(cc3F)c(=O)c(C(=O)N/N=C/c3ccc(OC)cc3)cn4C3CC3)CC2)cc1` . Reported growth?
Response given: 82.5% (inactive)

Challenge: Entry under review: `C(=N\Nc1ccccn1)/c1ccccn1` . Reported growth?
Response given: 22.8% (inactive)

Challenge: Entry under review: `CC1(C)CC(=O)C(c2c(-c3ccccc3)[nH]c3[nH]c(=S)[nH]c(=O)c23)=C(O)C1` . Reported growth?
Response given: 98.1% (inactive)

Challenge: Entry under review: `CCCCCCCCCc1cc(CN2CCCCC2)c(O)c(CN2CCCCC2)c1` . Reported growth?
Response given: 19.8% (inactive)

Challenge: Entry under review: `Cn1cc(-c2ccc(-c3cn(C)c4ncccc34)[nH]2)c2cccnc21` . Reported growth?
Response given: -29.1% (active)

Challenge: Entry under review: CS(CCCCN=C=S)=NC(=O)c1c(F)c(F)c(F)c(F)c1F (stereo unspecified) . Reported growth?
Response given: 19.1% (inactive)

Challenge: Entry under review: `OCCNCCNc1c2ccccc2nc2ccccc12` . Reported growth?
Response given: 39.6% (inactive)

Challenge: Entry under review: `COc1ccc(OCC(=O)Nc2ccc(-c3nc4ccccc4s3)cc2C)cc1` . Reported growth?
Response given: 30.4% (inactive)

Challenge: Entry under review: `O=C1/C(=C/c2ccccc2)CN(CCC(=O)N2C/C(=C\c3ccccc3)C(=O)/C(=C/c3ccccc3)C2)C/C1=C\c1ccccc1` . Reported growth?
Response given: 26.6% (inactive)

Challenge: Entry under review: `O=C1c2cccnc2C(=O)c2c1c(C(=O)OCCN1CCCCC1)c1ccccn21` . Reported growth?
Response given: 4.01% (active)

Challenge: Entry under review: `COc1ncc(-c2ccc3ncnc(Nc4cccc(Cl)c4)c3c2)cc1NS(C)(=O)=O` . Reported growth?
Response given: -6.68% (active)

Challenge: Entry under review: `Cc1ccc(-c2nc(/C=N/Nc3cc(C)nc4ccc(Br)cc34)c(C)o2)cc1` . Reported growth?
Response given: -8.4% (active)

Challenge: Entry under review: CCCCCCCCCCCCS(=O)CC(C)O (stereo unspecified) . Reported growth?
Response given: 98.2% (inactive)

Challenge: Entry under review: `COc1ccc(S(=O)(=O)NCCNc2nccc(-c3c(-c4cccc([N+](=O)[O-])c4)nc4sccn34)n2)cc1` . Reported growth?
Response given: 44.4% (inactive)

Challenge: Entry under review: `COc1cc2c(cc1O)CCc1cc(O)cc(OC)c1-2` . Reported growth?
Response given: 98% (inactive)

Challenge: Entry under review: Nc1nc2c(c3ncccc13)C(c1cccc(Br)c1)Cc1ncccc1-2 (stereo unspecified) . Reported growth?
Response given: 29.3% (inactive)

Challenge: Entry under review: `O=C(CN1CCN(c2cc3c(cc2F)c(=O)c(C(=O)O)cn3C2CC2)CC1)Nc1nc(-c2ccc(Cl)cc2)cs1` . Reported growth?
Response given: 40.2% (inactive)

Challenge: Entry under review: CC1CN(C(C)C)C(=S)N(c2ccccc2)C1=O (stereo unspecified) . Reported growth?
Response given: 166% (inactive)
